Target: T1, full-length Sudan GP (GPFL) (Sudan virus (SUDV), UniProt Q7T9D9 33-650)
T1 construct: also called Sudan GPFL; GP(S)FL
T1 sequence: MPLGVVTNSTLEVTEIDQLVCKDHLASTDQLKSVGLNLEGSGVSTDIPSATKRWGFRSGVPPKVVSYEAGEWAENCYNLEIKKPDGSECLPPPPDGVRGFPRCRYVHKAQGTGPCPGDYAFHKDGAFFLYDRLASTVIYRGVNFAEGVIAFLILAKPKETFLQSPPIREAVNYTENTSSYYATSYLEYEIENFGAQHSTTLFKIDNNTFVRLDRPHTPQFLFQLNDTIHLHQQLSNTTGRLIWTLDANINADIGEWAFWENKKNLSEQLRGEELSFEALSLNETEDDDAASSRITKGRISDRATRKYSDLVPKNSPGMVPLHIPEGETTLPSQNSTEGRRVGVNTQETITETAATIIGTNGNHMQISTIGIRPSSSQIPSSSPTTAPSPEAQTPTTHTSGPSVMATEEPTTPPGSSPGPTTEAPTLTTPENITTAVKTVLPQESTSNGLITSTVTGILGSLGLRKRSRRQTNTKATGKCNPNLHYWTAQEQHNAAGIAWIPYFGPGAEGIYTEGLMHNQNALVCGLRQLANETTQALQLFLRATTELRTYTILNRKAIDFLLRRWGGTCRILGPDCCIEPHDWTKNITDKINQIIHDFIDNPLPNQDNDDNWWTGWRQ
Test: ELISA on coated GP
Binary label based on EC50 with cut-off 0.4 µg/mL: below gives true (1), not below gives false (0).

**Query** Is it true that EC50 reported for antibody 191L (antibody, V domains shown) VH: EVQLVESGGGLVQPGGSLRLSCAASGFTFSSYGIHWVRQAPGKGLEWVAIISYDGNKKFHADSVKDRFTISRDNSKNMLYLQMNNLKLEDTAVYYCARAYDSGYFAGSVFYYWGQGVLVTVSS VL: EVVFTQPHSVSGSPGQTVTISCTRSSGSIDSEYVQWYQQRPGNAPTTVIYKDNQRPSGVPDRFSGSIDSSSNSASLAISGLKSEDEADYYCQSADGNYHPVFGEGTRLTVL is less than 0.4 µg/mL?
**Result** true (1)

**Query** Is it true that EC50 reported for antibody 232L (antibody, V domains shown) VH: KSQLVESGGGLVQPGGSLRLSCAASGFTFDAYAMHWVRQAPGEGLEWVTAISWSGSSTYYADSVKGRFTFSRDNAKNSLYLEMNSLRADDTAFYYCVKGGVYNWFDVWGPGVLVTVSS VL: QSVLTQPPSVSGAPGQRVTISCTGSRSNIGGYYVSWYQQFPGTTPKLLIYQDNKRPSGVSDRFSGSKSGTSASLTITGLQTEDEADYYCLSYDSSLNGWVFGGGTRLTVL is less than 0.4 µg/mL?
**Result** true (1)

**Query** Is it true that EC50 reported for antibody 314L (antibody, V domains shown) VH: EERLVESGGGLVQPGGSLRLSCAASGFTFGDYAMHWVRQVPGKSLEWLSGISWSGYTTYSADSVKGRFTISRDNAKNSLYLQMNRLRPEDTGLYYCVTLIGAIGIKDSLDVWGRGVLVTVSS VL: EVVFTQPHSVSGSPGQMVTISCTRSSGTIDNSYVYWHQQRPGSAPTTVIYNDDQRPSGVPDRFSGSIDSSSNSASLTISGLKSEDEADYYCQSYDSSGWVFGGGTRLTVL is less than 0.4 µg/mL?
**Result** false (0)

**Query** Is it true that EC50 reported for antibody 206L (antibody, V domains shown) VH: EVQLVESGGGVVQPGGSLRLSCAASGFTFDDYAMHWVRQAPGKGLEWVSGISWSGGNTYYADSVKGRFTVSRENAKNSLYLQMNRLRAEDTAFYNCARTSQGGAVVFSAPNYWGQGVLVTVSS VL: QSVLTQAPSVSGAPGQRVTISCTGSSSNIGGYYVQWYQQLPGRAPKLLIYENNKRPSGVSDRFSGSRSASSASLTITGLQSEDEADYYCQSYDSRLNGYIFGGGTRLTVL is less than 0.4 µg/mL?
**Result** false (0)
